- Tested target: muscle acetylcholine nicotinic receptor (AChR), adult mouse muscle, wild type (Mus musculus, UniProt P02716+P04756+P09690+P20782)
- Sequence (P02716 25-520): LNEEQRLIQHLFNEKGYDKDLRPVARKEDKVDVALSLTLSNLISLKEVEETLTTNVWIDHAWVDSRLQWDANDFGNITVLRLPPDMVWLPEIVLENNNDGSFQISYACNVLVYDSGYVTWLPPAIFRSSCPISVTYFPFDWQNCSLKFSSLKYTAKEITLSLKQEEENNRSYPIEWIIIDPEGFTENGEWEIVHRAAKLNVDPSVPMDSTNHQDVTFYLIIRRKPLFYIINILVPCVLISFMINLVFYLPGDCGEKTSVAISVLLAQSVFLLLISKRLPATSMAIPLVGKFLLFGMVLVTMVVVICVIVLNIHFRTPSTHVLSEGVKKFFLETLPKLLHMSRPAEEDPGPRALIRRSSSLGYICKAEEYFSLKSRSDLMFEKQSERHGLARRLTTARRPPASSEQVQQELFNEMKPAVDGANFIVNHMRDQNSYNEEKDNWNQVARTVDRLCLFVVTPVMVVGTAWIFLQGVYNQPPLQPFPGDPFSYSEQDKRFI
- Sequence (P20782 21-493): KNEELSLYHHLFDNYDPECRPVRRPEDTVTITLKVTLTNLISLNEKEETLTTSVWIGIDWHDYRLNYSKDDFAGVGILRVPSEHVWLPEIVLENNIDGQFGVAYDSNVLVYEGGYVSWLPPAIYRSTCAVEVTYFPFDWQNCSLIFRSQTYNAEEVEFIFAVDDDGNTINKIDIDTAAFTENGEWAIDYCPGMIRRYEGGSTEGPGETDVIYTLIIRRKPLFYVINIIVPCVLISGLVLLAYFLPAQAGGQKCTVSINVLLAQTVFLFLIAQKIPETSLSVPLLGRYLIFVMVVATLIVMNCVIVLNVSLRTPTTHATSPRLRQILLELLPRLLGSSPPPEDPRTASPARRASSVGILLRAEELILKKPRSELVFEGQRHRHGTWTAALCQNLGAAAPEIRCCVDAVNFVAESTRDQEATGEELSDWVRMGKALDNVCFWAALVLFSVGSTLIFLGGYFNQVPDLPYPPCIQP
- Sequence (P04756 21-457): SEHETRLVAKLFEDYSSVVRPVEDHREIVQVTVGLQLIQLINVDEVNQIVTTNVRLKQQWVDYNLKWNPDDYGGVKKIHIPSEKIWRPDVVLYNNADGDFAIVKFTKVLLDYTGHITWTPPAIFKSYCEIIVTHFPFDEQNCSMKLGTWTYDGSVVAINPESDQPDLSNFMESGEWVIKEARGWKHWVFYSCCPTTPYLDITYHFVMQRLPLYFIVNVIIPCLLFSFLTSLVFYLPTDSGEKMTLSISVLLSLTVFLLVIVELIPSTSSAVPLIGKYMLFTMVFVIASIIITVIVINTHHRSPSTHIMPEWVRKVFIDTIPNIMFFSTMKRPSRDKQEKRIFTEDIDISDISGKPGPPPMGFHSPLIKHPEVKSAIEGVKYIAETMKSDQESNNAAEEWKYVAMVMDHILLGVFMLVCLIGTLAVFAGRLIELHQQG
- Sequence (P09690 24-501): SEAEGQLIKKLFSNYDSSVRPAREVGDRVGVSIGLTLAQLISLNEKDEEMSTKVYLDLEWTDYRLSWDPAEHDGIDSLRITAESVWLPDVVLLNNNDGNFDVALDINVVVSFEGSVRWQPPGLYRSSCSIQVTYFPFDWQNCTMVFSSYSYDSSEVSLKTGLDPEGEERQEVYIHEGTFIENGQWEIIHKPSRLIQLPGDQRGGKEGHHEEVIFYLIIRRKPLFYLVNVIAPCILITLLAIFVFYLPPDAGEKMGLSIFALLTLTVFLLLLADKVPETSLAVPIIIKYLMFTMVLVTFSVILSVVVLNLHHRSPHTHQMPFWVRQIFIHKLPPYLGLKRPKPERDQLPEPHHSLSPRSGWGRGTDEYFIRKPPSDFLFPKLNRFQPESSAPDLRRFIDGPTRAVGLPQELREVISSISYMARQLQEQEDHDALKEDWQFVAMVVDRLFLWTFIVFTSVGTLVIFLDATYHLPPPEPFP
- Assay details: cell-attached single-channel patch clamp
Measurement kind: pKd
The read-out pKd is expressed as -log10 of concentration in moles per litre.

Tell me pKd reported for `C[N+](C)(C)CCO`
1.90
